assaySystem: Arabidopsis HPPD single point mutant SEQ ID No. 48 (Arabidopsis thaliana, UniProt P93836, K421Q)
Sequence (P93836 other isoform, or with tags, fused parts or gaps K421Q): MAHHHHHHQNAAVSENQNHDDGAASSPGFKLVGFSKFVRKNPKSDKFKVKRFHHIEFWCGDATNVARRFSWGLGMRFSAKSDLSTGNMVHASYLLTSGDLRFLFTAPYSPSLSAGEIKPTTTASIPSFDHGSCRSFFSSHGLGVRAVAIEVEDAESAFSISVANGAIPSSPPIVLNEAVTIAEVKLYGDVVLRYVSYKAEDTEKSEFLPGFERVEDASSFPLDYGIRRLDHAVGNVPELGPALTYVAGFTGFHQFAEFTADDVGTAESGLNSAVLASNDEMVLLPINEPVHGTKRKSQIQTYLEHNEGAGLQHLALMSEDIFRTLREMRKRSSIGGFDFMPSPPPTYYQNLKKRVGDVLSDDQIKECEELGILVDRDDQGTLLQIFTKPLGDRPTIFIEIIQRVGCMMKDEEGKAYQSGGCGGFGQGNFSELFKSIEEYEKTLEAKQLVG
assayExplanation: biochemical
pIC50: −log10 of the molar value.
valueKind: pIC50

*Q* Please give measured pIC50 of the following entry: "CS(=O)(=O)c1ccc(C(=O)C2C(=O)CCCC2=O)c([N+](=O)[O-])c1"
*A* > 5.60

*Q* Please give measured pIC50 of the following entry: "CS(=O)(=O)c1ccc(C(=O)C2C(=O)CCCC2=O)c(Cl)c1COCC(F)(F)F"
*A* > 5.60

*Q* Please give measured pIC50 of the following entry: COCCOCc1nc(C(F)(F)F)ccc1C(=O)C1=C(O)C2CCC(C2)C1=O (centres unmarked)
*A* 4.70

*Q* Please give measured pIC50 of the following entry: "Cc1ccc(C(=O)COc2c(C(=O)c3ccc(Cl)c(C)c3Cl)c(C)nn2C)cc1"
*A* > 5.60

*Q* Please give measured pIC50 of the following entry: "CS(=O)(=O)c1ccc(C(=O)C2C(=O)CCCC2=O)c(Cl)c1"
*A* > 5.60

---

assaySystem: Arabidopsis HPPD single point mutant SEQ ID No. 50 (Arabidopsis thaliana, UniProt P93836, K421V)
Sequence (P93836 other isoform, or with tags, fused parts or gaps K421V): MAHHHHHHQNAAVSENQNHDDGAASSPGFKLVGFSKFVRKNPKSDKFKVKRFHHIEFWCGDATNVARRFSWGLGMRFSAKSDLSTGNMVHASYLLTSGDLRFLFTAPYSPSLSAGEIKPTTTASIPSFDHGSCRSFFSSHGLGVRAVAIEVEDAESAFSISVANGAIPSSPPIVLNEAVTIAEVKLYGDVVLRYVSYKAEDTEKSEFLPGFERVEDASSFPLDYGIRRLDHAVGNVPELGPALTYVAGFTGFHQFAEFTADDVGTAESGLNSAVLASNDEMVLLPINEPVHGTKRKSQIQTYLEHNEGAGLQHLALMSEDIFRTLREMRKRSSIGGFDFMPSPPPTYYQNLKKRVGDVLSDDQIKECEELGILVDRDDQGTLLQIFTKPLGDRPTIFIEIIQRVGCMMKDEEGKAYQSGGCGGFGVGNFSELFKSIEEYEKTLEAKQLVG
assayExplanation: biochemical
valueKind: IC50 (µM)
Number in µM, nothing else.

*Q* Please give measured IC50 of the following entry: COCCOCc1nc(C(F)(F)F)ccc1C(=O)C1=C(O)C2CCC(C2)C1=O (stereo not shown)
*A* 63.1

*Q* Please give measured IC50 of the following entry: "Cc1ccc(C(=O)COc2c(C(=O)c3ccc(Cl)c(C)c3Cl)c(C)nn2C)cc1"
*A* 6.31

*Q* Please give measured IC50 of the following entry: "CS(=O)(=O)c1ccc(C(=O)C2C(=O)CCCC2=O)c(Cl)c1"
*A* 7.94

---

assaySystem: Arabidopsis HPPD single point mutant SEQ ID No. 40 (Arabidopsis thaliana, UniProt P93836, V269A)
Construct: made in house; host or cells: E. coli BL21 (DE3)
Sequence (P93836 other isoform, or with tags, fused parts or gaps V269A): as the sequence (P93836 other isoform, or with tags, fused parts or gaps K421Q) above, with V274A, Q426K counted along it
assayExplanation: biochemical
Could you please report measured pIC50 for the items listed next?
The read-out pIC50 is expressed as -log10 of concentration in moles per litre.

*Q* Please give measured pIC50 of the following entry: CS(=O)(=O)c1ccc(C(=O)C2C(=O)CCCC2=O)c(Cl)c1 [Sulcotrione]
*A* 5.00

*Q* Please give measured pIC50 of the following entry: Cc1ccc(C(=O)COc2c(C(=O)c3ccc(Cl)c(C)c3Cl)c(C)nn2C)cc1 [Benzofenap]
*A* 5.20

*Q* Please give measured pIC50 of the following entry: COCCOCc1nc(C(F)(F)F)ccc1C(=O)C1=C(O)C2CCC(C2)C1=O (stereo not shown) [Bicyclopyrone]
*A* 4.30

---

assaySystem: Arabidopsis HPPD single point mutant SEQ ID No. 42 (Arabidopsis thaliana, UniProt P93836, P280A)
Sequence (P93836 other isoform, or with tags, fused parts or gaps P280A): as the sequence (P93836 other isoform, or with tags, fused parts or gaps K421Q) above, with P285A, Q426K counted along it
assayExplanation: biochemical
valueKind: pIC50
The read-out pIC50 is expressed as -log10 of concentration in moles per litre.

*Q* Please give measured pIC50 of the following entry: COCCOCc1nc(C(F)(F)F)ccc1C(=O)C1=C(O)C2CCC(C2)C1=O (stereo not shown)
*A* 4.30

*Q* Please give measured pIC50 of the following entry: "CS(=O)(=O)c1ccc(C(=O)C2C(=O)CCCC2=O)c(Cl)c1"
*A* 5.00

*Q* Please give measured pIC50 of the following entry: "Cc1ccc(C(=O)COc2c(C(=O)c3ccc(Cl)c(C)c3Cl)c(C)nn2C)cc1"
*A* 5.20
